ASSAY_EXPLANATION: Half life in Sprague-Dawley rat at 3 mg/kg, po or 0.3 mg/kg, iv measured for 24 hrs by LC-MS/MS analysis
Type: ADME, organism-based
EXPERIMENTAL_SETUP: in vivo
PARAMETER_MEASURED: half-life (h)

A: CC(C)c1nc(-c2cnc(N)c(OC(F)(F)F)c2)cn1C12CC(N3CCOCC3)(C1)C2
B: Nc1ncc(-c2cn(C34CC(N5CCOCC5)(C3)C4)c(C3CC3)n2)cc1OC(F)(F)F
Of A versus B , which is the one with smaller reported half-life? Use the label to indicate which entry you chose.
B
(B: 3.4 h, A: 7 h)
